Recorded pIC50 for the following molecules
Biological target: Glucose-6-phosphate 1-dehydrogenase (Leuconostoc mesenteroides)
Sequence (P11411 whole entry): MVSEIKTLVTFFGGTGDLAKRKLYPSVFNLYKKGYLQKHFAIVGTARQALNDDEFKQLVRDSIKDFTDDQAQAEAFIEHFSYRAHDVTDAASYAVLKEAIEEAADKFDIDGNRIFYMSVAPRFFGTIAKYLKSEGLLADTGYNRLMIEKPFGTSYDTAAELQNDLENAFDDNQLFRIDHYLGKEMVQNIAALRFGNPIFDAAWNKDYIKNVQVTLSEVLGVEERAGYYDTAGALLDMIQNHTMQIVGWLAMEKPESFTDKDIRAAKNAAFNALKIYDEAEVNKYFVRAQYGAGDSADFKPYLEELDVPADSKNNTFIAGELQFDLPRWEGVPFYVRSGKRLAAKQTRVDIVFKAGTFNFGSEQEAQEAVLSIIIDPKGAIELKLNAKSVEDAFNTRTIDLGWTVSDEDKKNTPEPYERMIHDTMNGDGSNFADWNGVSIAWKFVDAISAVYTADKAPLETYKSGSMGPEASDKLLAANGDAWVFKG
pIC50: −log10 of the molar value.
measured-metric: pIC50

* O=C(Cn1sc2ccccc2c1=O)N1CCCCC1 | < 4.60
* COc1ccc(C(=O)NC(CC(=O)O)c2cccc(Cl)c2)cc1 (centres undefined) | < 4.60
* Cc1ccccc1NC(=O)Cn1sc2ccccc2c1=O | < 4.60
* O=C(Nc1cc(Cl)ccc1C(=O)O)c1ccccc1 | < 4.60
* O=c1c2ccccc2sn1-c1cccc(Cl)c1 | < 4.60
* COc1ccc(S(=O)(=O)Nc2cc(Cl)ccc2C(=O)O)cc1 | < 4.60
* CCc1ccc(C(=O)Nc2cc(Cl)ccc2C(=O)OC)cc1 | < 4.60
* CC(C(=O)Nc1ccccc1)n1sc2ccccc2c1=O (centres undefined) | < 4.60
* O=c1c2cc(N3CCOCC3)ccc2sn1-c1ccccc1 | < 4.60
* CCOc1ccc(C(=O)Nc2cc(Cl)ccc2C(=O)O)cc1 | < 4.60
* COc1cccc(NC(=O)Cn2sc3ccccc3c2=O)c1 [KUC104220N] | < 4.60
* O=C(Nc1ccccc1)n1sc2ccccc2c1=O [KUC105339N] | < 4.60
* COc1ccc(C(=O)Nc2cc(F)ccc2C(=O)O)cc1 | < 4.60
* O=C(Nc1cc(Cl)ccc1C(=O)O)c1ccc(C2CC2)cc1 [KUC106496N] | < 4.60
* O=c1c2ccccc2sn1-c1cccc(F)c1 [KUC103653N] | < 4.60
* COc1ccc(C(=O)Nc2ccccc2-c2nn[nH]n2)cc1 | < 4.60
* O=C(Nc1cc(Cl)ccc1C(=O)O)c1ccc2c(c1)CCC2 [KUC106492N] | < 4.60
* O=C(Nc1cc(Cl)ccc1C(=O)O)c1ccsc1 [KUC105926N] | < 4.60
* O=C(Cn1sc2ccccc2c1=O)NCc1ccccc1 | < 4.60
* O=c1c2cc(F)ccc2sn1-c1ccccc1Cl | < 4.60
* COc1ccc(NC(=O)c2ccc(Cl)cc2C(=O)O)cc1 [KUC105925N] | < 4.60
* COc1ccc(-c2cc3ccccc3[nH]2)cc1 [KUC105790N] | < 4.60
* N#Cc1ccc(NC(=O)Cn2sc3ccccc3c2=O)cc1 [KUC104552N] | < 4.60
* Cc1ccccc1N1Cc2ccccc2C1=O [KUC103869N] | < 4.60

The measurements presented in this section are drawn from BindingDB's records for doi:10.7270/Q2C53J9J.
